Test system: SF-268 CNS
Assay Comment: NCI-60 one-dose screen, 48 h
Conditions Used: 10 µM unless noted
Compounds without any hit were thinned out: in the full panel of roughly 83,000, 20% have a hit. Active and inactive are the calls of the source. Rule for the calls: active = growth percent below 10; inactive = the rest.
Answer with one of the outcomes Yes for active, No for inactive

COc1ccc(N=C2CSc3nnc(-c4cc(F)c(Cl)cc4Cl)n3N2)cc1 :: Yes
NNc1ccc(S(N)(=O)=O)cc1 :: No
O=C(c1ccccc1)c1cccc(C(Br)Br)c1 :: No
COc1ccccc1CNCCCN1C(=O)c2ccc3c4c(ccc(c24)C1=O)C(=O)N(CCCNCCCN)C3=O :: Yes
COc1cc(C)c(Cl)cc1C1=NN(c2ccc(S(N)(=O)=O)cc2)C(/C=C/c2ccccc2)C1 (stereo not given) :: No
CC(=O)c1ccc(N2C(=O)c3ccc(Oc4ccccc4)cc3C2=O)cc1 :: No
Cc1cccc(/C=N/n2c(-c3ccc(Cl)cc3)nc3c(Br)cc(Br)cc3c2=O)c1 :: No
Cc1nc(N)nc2c1CCC(Nc1ccccc1)S2 (stereo not given) :: No
COc1ccc(Cl)cc1Nc1nc(C(F)(F)F)ccc1C(=O)NN :: No
CCn1c(Cc2ccccc2Nc2c(Cl)cccc2Cl)nnc1SCC(=O)Nc1ccccc1C(F)(F)F :: No

Please share the test call associated with O=[N+]([O-])c1ccc(N/N=C\c2ccc(O)cc2O)nc1 .
No

Outcome logged for O=C(Nc1ccc([N+](=O)[O-])cc1)c1cc2ccccc2cc1O in this assay:
No

* * *

System: M14 melanoma
Assay Comment: NCI-60 one-dose screen, 48 h
Conditions Used: 10 µM unless noted
About 83,000 compounds went through this panel and 20% of them were active in at least one assay; those are over-represented in the sample as a whole. The source made the active and inactive calls. Rule for the calls: active = growth percent below 10; inactive = the rest.
Answer with one of the outcomes given here: TRUE (active), FALSE (inactive)

Consider the following illustrative entries.
c1coc(CNc2c3ccccc3nc3ccccc23)c1 :: FALSE
CC(C)OC1OC(OC(C)C)C(OC(C)C)OC1OC(C)C (stereo not drawn) :: FALSE
COCc1nc(NS(=O)(=O)c2ccc(N)cc2)nc(C)c1Br :: FALSE

GET /call?item= CN(C)CCCn1c(=O)c2cc([N+](=O)[O-])ccc2c2cnc3[nH]ccc3c21 returns the recorded outcome of this test.
FALSE

* * *

System: OVCAR-8 ovarian
Assay Comment: NCI-60 one-dose screen, 48 h (100 = growth as untreated, 0 = no growth, -100 = all killed)
Conditions Used: 10 µM unless noted
About 83,000 compounds went through this panel and 20% of them were active in at least one assay; those are over-represented in the sample as a whole.
Attribute Measured: growth (%)
Report only the number, with the unit % understood.

O=C(NNC(=O)c1cccc(Cl)c1)c1ccccc1 :: 106
CC(=O)Nc1ccc(/C=N/N2CCCCCC2)cc1 :: 101

Report growth for C=C1C(=O)O[C@H]2[C@H]1CC/C(COC(=O)NCc1cccc(OC)c1)=C\CC[C@@]1(C)O[C@@H]21 please.
46.1

Which growth value is on record for CCN(CC)CC(=O)Nc1c(C)ccc(N)c1C ?
105

// lookup growth for O=c1nc(-c2ccccc2)c2cc(-c3ccc(N4CCOCC4)cc3)ccc2[nH]1
82

Give its growth value. Item: CC(C)[C@@]12C[C@@H](OC(=O)[C@H]3CO3)[C@@](C)(O1)[C@@H]1CC[C@@H](C)[C@H]1[C@@H]2OC(=O)/C=C/c1ccccc1
11.1

What growth value was documented for this molecule, CCN(CC)c1ccc2c(cc1=O)[C@@H](NC(C)=O)CCc1cc(OC)c(OC)c(OC)c1-2 ?
12.3

// query growth value for entry Cc1[nH]c2ccccc2c1C1=CC(=O)C=CC1=O
89.3

Given the entry Nc1c(N)c2ccccc2c2ccccc12 , report its measured growth.
99.1

I am curious: what growth value has been reported for CC[C@]1(O)C[C@H]2CN(CCc3c([nH]c4ccccc34)C(C(=O)OC)(c3cc4c(cc3OC)N(C)[C@H]3[C@@](O)(C(=O)OC)[C@H](OC(C)=O)[C@]5(CC)[C@@H]6C[C@@H]6CN6CC[C@]43[C@@H]65)C2)C1 (some centres not stated) ?
19.4

Recorded growth for CNC(=O)OC1C(O[C@H]2C[C@H]3[C@@H]4CC=C5C[C@@H](O)CC[C@]5(C)[C@H]4CC[C@]3(C)[C@H]2[C@H](C)C(=O)CCC(C)C)OCC(O)C1OC1OCC(O)C(O)C1OC(=O)c1ccc(OC)cc1 (some centres not stated) , please?
35.5

Any idea what its growth is? The molecule is COc1cccc(-c2nc3sccn3c2-c2ccnc(NCCN3CCCNS3(=O)=O)n2)c1
83.8

From: PubChem BioAssay (NCI)
